Reference source for all entries: ChEMBL document CHEMBL1212858

# METHOD: Selectivity ratio of IC50 for african green monkey (Cercopithecus aethiops) Vero cells to IC50 for chloroquine-resistant Plasmodium falciparum FcB1
# Assay type: ADME, cell-based
# ASSAY_SETUP: read-out: Ratio IC50
VALUE_TYPE: selectivity ratio
The reply should be a number, written without any unit.

// worked examples, selectivity ratio included
C[C@@]12CCC(=O)c3coc(c31)C(=O)c1cc3c(cc12)C(=O)C1=C(NCCS1(=O)=O)C3=O [3-KETOADOCIAQUINONE B] | 5
C[C@@]12CCC(=O)c3coc(c31)C(=O)c1cc3c(cc12)C(=O)C1=C(C3=O)S(=O)(=O)CCN1 [3-KETOADOCIAQUINONE A] | 5

Let us examine a further case.
Would you kindly share the measured selectivity ratio for CC1=CCCC2(C)C1=C(O)C(=O)c1cc3c(cc12)C(=O)C=CC3=O (stereo not drawn) [ORHALQUINONE] ?
5
